test system: Primary melanocytes; assay: Safety, MTT test in primary melanocytes; type: cell-based; details: 250 µM; 48 hours
readout: Primary melanocytes MTT

{"smilesEntry": "Cc1ccc(/C=C/C(=O)NCCCCCO)cc1", "result": "87.64±1.44 % of solvent control"}
{"smilesEntry": "O=C(/C=C/c1ccc(Cl)cc1)NCCCCCO", "result": "93.39±1.60 % of solvent control"}
{"smilesEntry": "O=C(/C=C/c1ccc(Cl)cc1)NCCCO", "result": "90.27±2.25 % of solvent control"}
{"smilesEntry": "O=C(/C=C/c1ccccc1)NCCCCCO", "result": "88.88±2.26 % of solvent control"}
{"smilesEntry": "O=C(/C=C/c1ccc(Cl)cc1)NCCO", "result": "85.19±2.03 % of solvent control"}

###

# Increase in the number of yellow wells compared to the reference level per entry
tested on: S. typhimurium TA98; assay: Ames microplate test, TA98; format: cell-based, Salmonella typhimurium; conditions: 2.0 mM, without S9;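 note: reference level is the mean solvent-control yellow wells plus SD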
readout: Increase in the number of yellow wells compared to the reference level

{"compound": "O=C(/C=C/c1ccccc1)NCCCCCCO [H-425/21]", "systemUnderTest": "S. typhimurium TA98", "resultNumber": 0.80}
{"compound": "CC(CO)NC(=O)/C=C/c1ccc(Cl)cc1 (stereo not drawn) [Compound A-102]", "systemUnderTest": "S. typhimurium TA98", "resultNumber": 0.35}
{"compound": "O=C(/C=C/c1ccccc1)NCCCCCO [Compound A-133]", "systemUnderTest": "S. typhimurium TA98", "resultNumber": 0.67}
{"compound": "Cc1ccc(/C=C/C(=O)NCCCCCO)cc1 [H-415/21]", "systemUnderTest": "S. typhimurium TA98", "resultNumber": 0.35}
{"compound": "CCC(O)CNC(=O)/C=C/c1ccc(Cl)cc1 (stereo not drawn) [Compound A-67]", "systemUnderTest": "S. typhimurium TA98", "resultNumber": 1.07}
{"compound": "O=C(/C=C/c1ccc(Cl)cc1)NCCCCCO [Compound A-111]", "systemUnderTest": "S. typhimurium TA98", "resultNumber": 1.00}

###

# Increase in the number of yellow wells compared to the reference level per entry
test system: S. typhimurium TA1537; assay: Ames microplate test, TA1537; type: cell-based, Salmonella typhimurium; conditions: 1.0 mM, +S9;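 note: reference level is the mean solvent-control yellow wells plus SD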
readout: Increase in the number of yellow wells compared to the reference level

{"compound": "O=C(/C=C/c1ccccc1)NCCCCCO [Compound A-133]", "systemUnderTest": "S. typhimurium TA1537", "result": 0.36}
{"compound": "O=C(/C=C/c1ccc(Cl)cc1)NCCCCCO [Compound A-111]", "systemUnderTest": "S. typhimurium TA1537", "result": 0.45}
{"compound": "O=C(/C=C/c1ccccc1)NCCCCCCO [H-425/21]", "systemUnderTest": "S. typhimurium TA1537", "result": 0.00}
{"compound": "CCC(O)CNC(=O)/C=C/c1ccc(Cl)cc1 (stereo not shown) [Compound A-67]", "systemUnderTest": "S. typhimurium TA1537", "result": 1.33}

###

# NDI (nuclear division index) per entry
tested on: Chinese hamster ovary cell line (CHO-K1); test: Genotoxicity in the micronucleus test in CHO-K1 cells; type: cell-based; settings: 100 µM
readout: NDI (nuclear division index)

{"compound": "O=C(/C=C/c1ccccc1)NCCCCCO [Compound A-133]", "readout": "NDI (nuclear division index)", "result": 1.64}
{"compound": "O=C(/C=C/c1ccc(Cl)cc1)NCCCCCO [Compound A-111]", "readout": "NDI (nuclear division index)", "result": 1.60}
{"compound": "CC(CO)NC(=O)/C=C/c1ccc(Cl)cc1 (stereo not drawn) [Compound A-102]", "readout": "NDI (nuclear division index)", "result": 1.54}
{"compound": "Cc1ccc(/C=C/C(=O)NCCCCCO)cc1 [H-415/21]", "readout": "NDI (nuclear division index)", "result": 1.54}
{"compound": "O=C(/C=C/c1ccccc1)NCCCCCCO [H-425/21]", "readout": "NDI (nuclear division index)", "result": 1.56}
{"compound": "CCC(O)CNC(=O)/C=C/c1ccc(Cl)cc1 (stereo not drawn) [Compound A-67]", "readout": "NDI (nuclear division index)", "result": 1.58}

###

test system: Fibroblasts (BJ); assay: Safety, MTT test in fibroblasts; format: cell-based; details: 250 µM; 48 hours

{"smilesEntry": "O=C(/C=C/c1ccccc1)NCCCCCO", "Fibroblasts (BJ) MTT": "82.50±3.99 % of solvent control"}
{"smilesEntry": "O=C(/C=C/c1ccc(Cl)cc1)NCCCCCO", "Fibroblasts (BJ) MTT": "94.51±5.03 % of solvent control"}
{"smilesEntry": "O=C(/C=C/c1ccc(Cl)cc1)NCCCO", "Fibroblasts (BJ) MTT": "76.51±1.80 % of solvent control"}
{"smilesEntry": "Cc1ccc(/C=C/C(=O)NCCCCCO)cc1", "Fibroblasts (BJ) MTT": "92.86±4.30 % of solvent control"}
{"smilesEntry": "O=C(/C=C/c1ccc(Cl)cc1)NCCO", "Fibroblasts (BJ) MTT": "98.13±2.81 % of solvent control"}

###

system: Primary melanocytes; assay: Safety, MTT test in primary melanocytes; format: cell-based; conditions: 100 µM; 48 hours

{"smilesEntry": "O=C(/C=C/c1ccc(Cl)cc1)NCCO", "Primary melanocytes MTT": "102.20±2.24 % of solvent control"}
{"smilesEntry": "Cc1ccc(/C=C/C(=O)NCCCCCO)cc1", "Primary melanocytes MTT": "103.27±1.88 % of solvent control"}
{"smilesEntry": "O=C(/C=C/c1ccc(Cl)cc1)NCCCCCO", "Primary melanocytes MTT": "104.51±1.19 % of solvent control"}
{"smilesEntry": "O=C(/C=C/c1ccc(Cl)cc1)NCCCO", "Primary melanocytes MTT": "101.42±2.21 % of solvent control"}
{"smilesEntry": "O=C(/C=C/c1ccccc1)NCCCCCO", "Primary melanocytes MTT": "103.69±2.57 % of solvent control"}

###

# Primary melanocytes MTT per entry
tested on: Primary melanocytes; assay: Safety, MTT test in primary melanocytes; format: cell-based; conditions: 150 µM; 48 hours
readout: Primary melanocytes MTT

{"smilesEntry": "O=C(/C=C/c1ccccc1)NCCCCCO", "result": "101.88±2.47 % of solvent control"}
{"smilesEntry": "O=C(/C=C/c1ccc(Cl)cc1)NCCCCCO", "result": "103.09±1.79 % of solvent control"}
{"smilesEntry": "Cc1ccc(/C=C/C(=O)NCCCCCO)cc1", "result": "99.89±2.43 % of solvent control"}
{"smilesEntry": "O=C(/C=C/c1ccc(Cl)cc1)NCCO", "result": "100.57±2.18 % of solvent control"}
{"smilesEntry": "O=C(/C=C/c1ccc(Cl)cc1)NCCCO", "result": "97.02±4.49 % of solvent control"}

###

test system: S. typhimurium TA98; experiment: Ames microplate test, TA98; assay type: cell-based, Salmonella typhimurium; conditions: 1.0 mM, without S9;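 note: reference level is the mean solvent-control yellow wells plus SD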
Please assign label 0 whenever Increase in the number of yellow wells compared to the reference level is at or above 0.3, and label 1 whenever it is below.

{"compound": "O=C(/C=C/c1ccccc1)NCCCCCCO", "systemUnderTest": "S. typhimurium TA98", "categoryLabel": "label 0"}
{"compound": "CCC(O)CNC(=O)/C=C/c1ccc(Cl)cc1 (stereo not drawn)", "systemUnderTest": "S. typhimurium TA98", "categoryLabel": "label 0"}
{"compound": "O=C(/C=C/c1ccc(Cl)cc1)NCCCCCO", "systemUnderTest": "S. typhimurium TA98", "categoryLabel": "label 0"}
{"compound": "O=C(/C=C/c1ccccc1)NCCCCCO", "systemUnderTest": "S. typhimurium TA98", "categoryLabel": "label 0"}
{"compound": "Cc1ccc(/C=C/C(=O)NCCCCCO)cc1", "systemUnderTest": "S. typhimurium TA98", "categoryLabel": "label 1"}
{"compound": "CC(CO)NC(=O)/C=C/c1ccc(Cl)cc1 (stereo not drawn)", "systemUnderTest": "S. typhimurium TA98", "categoryLabel": "label 1"}

###

system: Hepatocarcinoma HepG2; assay: Safety, MTT test in HepG2; format: cell-based; conditions: 250 µM; 48 hours
# Hepatocarcinoma HepG2 MTT per entry

{"smilesEntry": "O=C(/C=C/c1ccc(Cl)cc1)NCCO", "Hepatocarcinoma HepG2 MTT": "100.08±10.58 % of solvent control"}
{"smilesEntry": "O=C(/C=C/c1ccc(Cl)cc1)NCCCCCO", "Hepatocarcinoma HepG2 MTT": "96.27±2.57 % of solvent control"}
{"smilesEntry": "O=C(/C=C/c1ccc(Cl)cc1)NCCCO", "Hepatocarcinoma HepG2 MTT": "93.16±1.71 % of solvent control"}
{"smilesEntry": "Cc1ccc(/C=C/C(=O)NCCCCCO)cc1", "Hepatocarcinoma HepG2 MTT": "98.90±4.21 % of solvent control"}
{"smilesEntry": "O=C(/C=C/c1ccccc1)NCCCCCO", "Hepatocarcinoma HepG2 MTT": "98.92±2.34 % of solvent control"}
